Target: Steryl-sulfatase (Homo sapiens)
Experiment: In vitro inhibition of Estrone Sulfatase in placental microsomes at a concentration of 10 uM.
Details: Placenta
Measured inhibition by item
Please state the figure in %; there is no need to write the unit.

Field: example entries. Status: answers known.
# Molecule, Unit abbreviation, Measured number
rows = [
    ("NS(=O)(=O)Oc1ccc2c(c1)CCCC2=O", "%", 16.1),
    ("Cc1c(C)c2ccc(OS(N)(=O)=O)c(C)c2oc1=O", "%", 17.4),
    ("NS(=O)(=O)Oc1ccc2c(c1)CCC2=O", "%", 19.6),
    ("CC1CC(=O)Oc2cc(OS(N)(=O)=O)ccc21 (stereo unspecified)", "%", 53.4),
    ("NS(=O)(=O)Oc1ccc2c(C(F)(F)F)cc(=O)oc2c1", "%", 79.4),
]

(Q) Which inhibition is listed for NS(=O)(=O)Oc1ccc2ccc(=O)oc2c1 ?
(A) 78.2

----------
Measured inhibition by item
Target: Steryl-sulfatase (Homo sapiens) (UniProt P08842)
Sequence (whole entry): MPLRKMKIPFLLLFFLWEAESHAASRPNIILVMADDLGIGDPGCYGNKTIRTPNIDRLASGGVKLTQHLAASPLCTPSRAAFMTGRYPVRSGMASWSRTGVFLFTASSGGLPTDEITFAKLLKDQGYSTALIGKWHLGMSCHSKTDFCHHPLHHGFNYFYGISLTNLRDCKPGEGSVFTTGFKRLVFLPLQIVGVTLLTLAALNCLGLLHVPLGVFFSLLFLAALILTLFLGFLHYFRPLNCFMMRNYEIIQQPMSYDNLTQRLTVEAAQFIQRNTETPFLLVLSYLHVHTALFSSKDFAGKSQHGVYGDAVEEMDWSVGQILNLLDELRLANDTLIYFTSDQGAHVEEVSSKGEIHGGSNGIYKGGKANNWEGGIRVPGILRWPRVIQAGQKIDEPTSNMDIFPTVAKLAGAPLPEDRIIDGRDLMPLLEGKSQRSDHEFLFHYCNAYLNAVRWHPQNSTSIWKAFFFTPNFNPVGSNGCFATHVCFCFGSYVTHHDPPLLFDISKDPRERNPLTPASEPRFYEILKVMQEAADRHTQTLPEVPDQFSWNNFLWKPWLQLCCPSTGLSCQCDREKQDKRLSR
Test: In vitro inhibition of Estrone Sulfatase in placental microsomes at a concentration of 10 uM.
Settings: Placenta
Please state the figure in %; there is no need to write the unit.

Field: example entries. Status: answers known.
# Structure smiles, System, inhibition / %
measured = [
    ("Cc1c(C)c2ccc(OS(N)(=O)=O)cc2oc1=O", "Steryl-sulfatase (Homo sapiens) (UniProt P08842)", 96.9),
    ("NS(=O)(=O)Oc1ccc2c(c1)OCC=C2", "Steryl-sulfatase (Homo sapiens) (UniProt P08842)", 19.9),
]

Next compound, please.
(Q) Can you look up inhibition on Steryl-sulfatase (Homo sapiens) (UniProt P08842) for NS(=O)(=O)Oc1ccc2c(c1)C(=O)CCC2 ?
(A) 12.3

----------
Measured inhibition by item
Target: Steryl-sulfatase (Homo sapiens)
Experiment: In vitro inhibition of Estrone Sulfatase in intact MCF-7 breast cancer cells at a concentration of 1.0 uM.
Format: cell-based
Details: MCF7
Please state the figure in %; there is no need to write the unit.

# Structure smiles, Unit abbreviation, inhibition
rows = [
    ("NS(=O)(=O)Oc1cccc2c1CCC2=O", "%", 15.5),
    ("NS(=O)(=O)Oc1ccc2ccc(=O)oc2c1", "%", 66),
]

(Q) Can you look up inhibition on Steryl-sulfatase (Homo sapiens) for NS(=O)(=O)Oc1ccc2c(c1)CCC2=O ?
(A) 22.6

(Q) Proceed to NS(=O)(=O)Oc1ccc2c(c1)OC(=O)CC2
(A) 30.2

Data provenance: ChEMBL document CHEMBL1131376
